Origin of measurements: PubChem BioAssay AID2060618

IC50 values for the molecules below.
Test system: 454973-116-R2-J3-PDC spheroids, percent test/control viability
assayMethodText: Anticancer human tumor 454973-116-R2-J3-PDC patient-derived pancreatic carcinoma cell line growth inhibition [CLK]
conditionParameters: curve of first compound; second compound 0.0316 µM; spheroids with HUVEC and MSC
assayMetric: IC50 (µM)

INSERT INTO results (molecule, assaymetric, readingqualifier, valueobserved) VALUES
  ('CC1COCCN1c1cc(C2(S(C)(=N)=O)CC2)nc(-c2ccnc3[nH]ccc23)n1 (stereo not given) + CN1CCN(c2cc(C(=O)Nc3cc4cc(-c5cnn(C)c5)ccc4cn3)ccn2)CC1', 'IC50', '=', 7.24),
  ('CC1(C)CCC(CN2CCN(c3ccc(C(=O)NS(=O)(=O)c4ccc(NCC5CCOCC5)c([N+](=O)[O-])c4)c(Oc4cnc5[nH]ccc5c4)c3)CC2)=C(c2ccc(Cl)cc2)C1 + CNC(=O)c1ccc(Nc2nc(OC3CCCC3)c3c(-c4ccc5nc(C)oc5c4)c[nH]c3n2)c(OC)c1', 'IC50', '=', 6.83),
  ('O=c1[nH]cc(F)c(=O)[nH]1 + CN1CCN(c2cc(C(=O)Nc3cc4cc(-c5cnn(C)c5)ccc4cn3)ccn2)CC1', 'IC50', '=', 1.94),
  ('COc1cccc2c1C(=O)c1c(O)c3c(c(O)c1C2=O)CC(O)(C(=O)CO)CC3OC1CC(N)C(O)C(C)O1 (stereo not given) + CN1CCN(c2cc(C(=O)Nc3cc4cc(-c5cnn(C)c5)ccc4cn3)ccn2)CC1', 'IC50', '<', 0.0316),
  ('C=CC(=O)Nc1cc(Nc2nccc(-c3cn(C)c4ccccc34)n2)c(OC)cc1N(C)CCN(C)C + CN1CCN(c2cc(C(=O)Nc3cc4cc(-c5cnn(C)c5)ccc4cn3)ccn2)CC1', 'IC50', '>', 0.3);

====

Test system: 454973-116-R2-J3-PDC spheroids, percent test/control viability
assayMethodText: Anticancer human tumor 454973-116-R2-J3-PDC cell line growth inhibition [CLK];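 further: spheroids exposed to compounds for 7 days before readout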
conditionParameters: second compound 1 µM; first compound 0.1 µM; stronger effect = lower value; spheroids with HUVEC and MSC
Class (required): determined from viability, T/C; valid ranges are bin A = under 0.2%, bin B = from 0.2% up to 10%, bin C = 10% and over

INSERT INTO results (compound, target, classassignment) VALUES
  ('Nc1ccn(C2OC(CO)C(O)C2(F)F)c(=O)n1 (stereo unspecified) + CNC(=O)c1ccc(Nc2nc(OC3CCCC3)c3c(-c4ccc5nc(C)oc5c4)c[nH]c3n2)c(OC)c1', '454973-116-R2-J3-PDC spheroids, percent test/control viability', 'bin B'),
  ('COc1c(OCCCN2CCOCC2)ccc2c3n(c(=NC(=O)c4cnc(N)nc4)nc12)CCN3 + CNC(=O)c1ccc(Nc2nc(OC3CCCC3)c3c(-c4ccc5nc(C)oc5c4)c[nH]c3n2)c(OC)c1', '454973-116-R2-J3-PDC spheroids, percent test/control viability', 'bin C'),
  ('C=C(F)C(=O)N1CCN(c2nc(OCC3CCCN3C)nc3c2CCN(c2cccc4cccc(Cl)c24)C3)CC1CC#N (stereo unspecified) + CNC(=O)c1ccc(Nc2nc(OC3CCCC3)c3c(-c4ccc5nc(C)oc5c4)c[nH]c3n2)c(OC)c1', '454973-116-R2-J3-PDC spheroids, percent test/control viability', 'bin C'),
  ('COc1ccc([C@@H](O)c2cc(-c3ncnc4cc(N5CCOCC5)ccc34)c(F)cc2Cl)nn1 + CN1CCN(c2cc(C(=O)Nc3cc4cc(-c5cnn(C)c5)ccc4cn3)ccn2)CC1', '454973-116-R2-J3-PDC spheroids, percent test/control viability', 'bin A'),
  ('Nc1ccccc1NC(=O)c1ccc(CNC(=O)OCc2cccnc2)cc1 + CNC(=O)c1ccc(Nc2nc(OC3CCCC3)c3c(-c4ccc5nc(C)oc5c4)c[nH]c3n2)c(OC)c1', '454973-116-R2-J3-PDC spheroids, percent test/control viability', 'bin C'),
  ('O=c1[nH]cc(F)c(=O)[nH]1 + CNC(=O)c1ccc(Nc2nc(OC3CCCC3)c3c(-c4ccc5nc(C)oc5c4)c[nH]c3n2)c(OC)c1', '454973-116-R2-J3-PDC spheroids, percent test/control viability', 'bin C'),
  ('CCCS(=O)(=O)Nc1ccc(F)c(C(=O)c2c[nH]c3ncc(-c4ccc(Cl)cc4)cc23)c1F + CN1CCN(c2cc(C(=O)Nc3cc4cc(-c5cnn(C)c5)ccc4cn3)ccn2)CC1', '454973-116-R2-J3-PDC spheroids, percent test/control viability', 'bin A'),
  ('C#Cc1c(F)ccc2cc(O)cc(-c3ncc4c(N5CC6CCC(C5)N6)nc(OCC56CCCN5CC(F)C6)nc4c3F)c12 (stereo unspecified) + CN1CCN(c2cc(C(=O)Nc3cc4cc(-c5cnn(C)c5)ccc4cn3)ccn2)CC1', '454973-116-R2-J3-PDC spheroids, percent test/control viability', 'bin A'),
  ('CCc1c2c(nc3ccc(O)cc13)-c1cc3c(c(=O)n1C2)COC(=O)[C@]3(O)CC + CNC(=O)c1ccc(Nc2nc(OC3CCCC3)c3c(-c4ccc5nc(C)oc5c4)c[nH]c3n2)c(OC)c1', '454973-116-R2-J3-PDC spheroids, percent test/control viability', 'bin B'),
  ('COc1cccc2c1C(=O)c1c(O)c3c(c(O)c1C2=O)CC(O)(C(=O)CO)CC3OC1CC(N)C(O)C(C)O1 (stereo unspecified) + CN1CCN(c2cc(C(=O)Nc3cc4cc(-c5cnn(C)c5)ccc4cn3)ccn2)CC1', '454973-116-R2-J3-PDC spheroids, percent test/control viability', 'bin A'),
  ('C=CC(=O)N1CCN(c2nc(=O)n(-c3c(C)ccnc3C(C)C)c3nc(-c4c(O)cccc4F)c(F)cc23)C(C)C1 (stereo unspecified) + CN1CCN(c2cc(C(=O)Nc3cc4cc(-c5cnn(C)c5)ccc4cn3)ccn2)CC1', '454973-116-R2-J3-PDC spheroids, percent test/control viability', 'bin B');

====

System: 454973-116-R2-J3-PDC spheroids, percent test/control viability
assayMethodText: Anticancer human tumor 454973-116-R2-J3-PDC cell line growth inhibition [CLK];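 further: spheroids exposed to compounds for 7 days before readout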
conditionParameters: curve of first compound; second compound 1 µM; spheroids with HUVEC and MSC
// reported IC50 for each item listed
assayMetric: IC50

INSERT INTO assay_data (compound, valueobserved) VALUES
  ('CC(=O)O[C@H]1C(=O)[C@@]2(C)[C@H]([C@H](OC(=O)c3ccccc3)[C@]3(O)C[C@H](OC(=O)[C@H](O)[C@@H](NC(=O)c4ccccc4)c4ccccc4)C(C)=C1C3(C)C)[C@]1(OC(C)=O)CO[C@@H]1C[C@@H]2O + CNC(=O)c1ccc(Nc2nc(OC3CCCC3)c3c(-c4ccc5nc(C)oc5c4)c[nH]c3n2)c(OC)c1', '< 31.6 nM'),
  ('C=CC(=O)N1CCN(c2nc(=O)n(-c3c(C)ccnc3C(C)C)c3nc(-c4c(O)cccc4F)c(F)cc23)C(C)C1 (stereo not given) + CN1CCN(c2cc(C(=O)Nc3cc4cc(-c5cnn(C)c5)ccc4cn3)ccn2)CC1', '< 31.6 nM'),
  ('NC(=O)C(=Cn1cnc(-c2cc(C(F)(F)F)cc(C(F)(F)F)c2)n1)c1cncnc1 + CNC(=O)c1ccc(Nc2nc(OC3CCCC3)c3c(-c4ccc5nc(C)oc5c4)c[nH]c3n2)c(OC)c1', '< 9.49 nM'),
  ('CC(=O)O[C@H]1C(=O)[C@@]2(C)[C@H]([C@H](OC(=O)c3ccccc3)[C@]3(O)C[C@H](OC(=O)[C@H](O)[C@@H](NC(=O)c4ccccc4)c4ccccc4)C(C)=C1C3(C)C)[C@]1(OC(C)=O)CO[C@@H]1C[C@@H]2O + CN1CCN(c2cc(C(=O)Nc3cc4cc(-c5cnn(C)c5)ccc4cn3)ccn2)CC1', '< 31.6 nM'),
  ('CC(Nc1ccc2c(c1)OCCn1cc(N3C(=O)OCC3C(F)F)nc1-2)C(N)=O (stereo not given) + CN1CCN(c2cc(C(=O)Nc3cc4cc(-c5cnn(C)c5)ccc4cn3)ccn2)CC1', '< 31.6 nM'),
  ('COc1cccc2c1C(=O)c1c(O)c3c(c(O)c1C2=O)CC(O)(C(=O)CO)CC3OC1CC(N)C(O)C(C)O1 (stereo not given) + CN1CCN(c2cc(C(=O)Nc3cc4cc(-c5cnn(C)c5)ccc4cn3)ccn2)CC1', '< 31.6 nM'),
  ('NC(=O)C(=Cn1cnc(-c2cc(C(F)(F)F)cc(C(F)(F)F)c2)n1)c1cncnc1 + CN1CCN(c2cc(C(=O)Nc3cc4cc(-c5cnn(C)c5)ccc4cn3)ccn2)CC1', '< 9.49 nM'),
  ('C=CC(=O)Nc1cc(Nc2nccc(-c3cn(C)c4ccccc34)n2)c(OC)cc1N(C)CCN(C)C + CNC(=O)c1ccc(Nc2nc(OC3CCCC3)c3c(-c4ccc5nc(C)oc5c4)c[nH]c3n2)c(OC)c1', '< 0.949 nM'),
  ('CCN1CCN(Cc2ccc(Nc3ncc(F)c(-c4cc(F)c5nc(C)n(C(C)C)c5c4)n3)nc2)CC1 + CNC(=O)c1ccc(Nc2nc(OC3CCCC3)c3c(-c4ccc5nc(C)oc5c4)c[nH]c3n2)c(OC)c1', '< 3.16 nM'),
  ('CC(CO)NC(=O)c1cc(-c2ccc(Cl)cc2)nn(-c2cnn(C)c2)c1=O (stereo not given) + CNC(=O)c1ccc(Nc2nc(OC3CCCC3)c3c(-c4ccc5nc(C)oc5c4)c[nH]c3n2)c(OC)c1', '< 31.6 nM'),
  ('O=c1[nH]cc(F)c(=O)[nH]1 + CNC(=O)c1ccc(Nc2nc(OC3CCCC3)c3c(-c4ccc5nc(C)oc5c4)c[nH]c3n2)c(OC)c1', '< 31.6 nM'),
  ('CCCS(=O)(=O)Nc1ccc(F)c(C(=O)c2c[nH]c3ncc(-c4ccc(Cl)cc4)cc23)c1F + CN1CCN(c2cc(C(=O)Nc3cc4cc(-c5cnn(C)c5)ccc4cn3)ccn2)CC1', '< 31.6 nM'),
  ('Cn1ncnc1[C@H]1c2n[nH]c(=O)c3cc(F)cc(c23)N[C@@H]1c1ccc(F)cc1 + CNC(=O)c1ccc(Nc2nc(OC3CCCC3)c3c(-c4ccc5nc(C)oc5c4)c[nH]c3n2)c(OC)c1', '< 0.316 nM'),
  ('Nc1ccccc1NC(=O)c1ccc(CNC(=O)OCc2cccnc2)cc1 + CN1CCN(c2cc(C(=O)Nc3cc4cc(-c5cnn(C)c5)ccc4cn3)ccn2)CC1', '< 31.6 nM'),
  ('C=C(F)C(=O)N1CCN(c2nc(OCC3CCCN3C)nc3c2CCN(c2cccc4cccc(Cl)c24)C3)CC1CC#N (stereo not given) + CN1CCN(c2cc(C(=O)Nc3cc4cc(-c5cnn(C)c5)ccc4cn3)ccn2)CC1', '< 31.6 nM'),
  ('COC1C=CCC(C)C(C)S(=O)(=O)NC(=O)c2ccc3c(c2)N(CC2CCC21)CC1(CCCc2cc(Cl)ccc21)CO3 (stereo not given) + CN1CCN(c2cc(C(=O)Nc3cc4cc(-c5cnn(C)c5)ccc4cn3)ccn2)CC1', '< 31.6 nM'),
  ('COc1c(OCCCN2CCOCC2)ccc2c3n(c(=NC(=O)c4cnc(N)nc4)nc12)CCN3 + CNC(=O)c1ccc(Nc2nc(OC3CCCC3)c3c(-c4ccc5nc(C)oc5c4)c[nH]c3n2)c(OC)c1', '< 3.16 nM'),
  ('Nc1ccn(C2OC(CO)C(O)C2(F)F)c(=O)n1 (stereo not given) + CNC(=O)c1ccc(Nc2nc(OC3CCCC3)c3c(-c4ccc5nc(C)oc5c4)c[nH]c3n2)c(OC)c1', '< 31.6 nM'),
  ('C=CC(=O)Nc1cc(Nc2nccc(-c3cn(C)c4ccccc34)n2)c(OC)cc1N(C)CCN(C)C + CN1CCN(c2cc(C(=O)Nc3cc4cc(-c5cnn(C)c5)ccc4cn3)ccn2)CC1', '< 0.949 nM'),
  ('COC1C=CCC(C)C(C)S(=O)(=O)NC(=O)c2ccc3c(c2)N(CC2CCC21)CC1(CCCc2cc(Cl)ccc21)CO3 (stereo not given) + CNC(=O)c1ccc(Nc2nc(OC3CCCC3)c3c(-c4ccc5nc(C)oc5c4)c[nH]c3n2)c(OC)c1', '< 31.6 nM');
